ASSAY_SYSTEM: NF-κB (p65) (Homo sapiens)
MEASUREMENT_KIND: IC50 (µM)
The answer is to be given in µM; state only the numeric part.

For orientation, consider the following solved cases.
>  <MOLECULE>
C=C1C(=O)OC2CC(C)C(OC)CC(=O)C(C)(OC(C)=O)CC(OC(=O)C(C)=CC)C12 (stereo not shown)

>  <UNIT_ABBREV>
µM

>  <IC50>
2.1

$$$$
>  <MOLECULE>
C=C(C)C(=O)O[C@H]1C[C@@]2(C)OC(=CC2=O)/C(CO)=C\[C@H]2OC(=O)C(=C)[C@H]12 [Compound 8, goyazensolide]

>  <UNIT_ABBREV>
µM

>  <IC50>
3.8

$$$$

Kindly review the next molecule as well.
Task: Please give the measured IC50 for this molecule: C=C1C(=O)O[C@@H]2/C=C(/C)C3=CC(=O)[C@@](C)(C[C@H](OC(=O)/C(C)=C\C)[C@@H]12)O3 [Compound 12, lychnopholide]
Result: 2.9

* * *

NF-κB (p65) (Homo sapiens, UniProt Q04206) data, read-out pIC50
Sequence (Q04206 whole entry): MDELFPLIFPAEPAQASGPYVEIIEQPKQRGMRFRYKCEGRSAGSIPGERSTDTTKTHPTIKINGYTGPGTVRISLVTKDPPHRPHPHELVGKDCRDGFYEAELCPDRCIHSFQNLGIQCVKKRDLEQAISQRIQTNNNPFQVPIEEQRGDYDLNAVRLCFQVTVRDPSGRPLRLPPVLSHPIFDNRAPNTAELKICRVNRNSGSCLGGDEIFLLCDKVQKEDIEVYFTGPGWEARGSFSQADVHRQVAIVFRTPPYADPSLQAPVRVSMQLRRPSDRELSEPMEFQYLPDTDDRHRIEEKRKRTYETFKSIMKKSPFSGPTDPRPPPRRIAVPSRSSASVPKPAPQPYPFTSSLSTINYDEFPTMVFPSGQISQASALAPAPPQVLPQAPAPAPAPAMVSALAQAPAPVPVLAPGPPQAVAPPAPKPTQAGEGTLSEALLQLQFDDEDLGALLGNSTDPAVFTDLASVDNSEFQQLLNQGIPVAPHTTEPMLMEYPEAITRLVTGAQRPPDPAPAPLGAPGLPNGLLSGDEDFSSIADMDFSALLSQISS
pIC50: −log10 of the molar value.

Reference set, count: 3
>  <COMPOUND>
C=C1C(=O)O[C@@H]2C[C@@H](C)/C=C\C(=O)[C@](C)(OC(C)=O)C[C@H](OC(=O)/C(C)=C\C)[C@@H]12 [Compound 7, ereglomerulide]

>  <pIC50>
< 5.00

$$$$
>  <COMPOUND>
C=C1C(=O)OC2CC(C)C(OC)CC(=O)C(C)(O)CC(OC(=O)C(C)=CC)C12 (stereo not shown) [Compound 6]

>  <pIC50>
< 5.00

$$$$
>  <COMPOUND>
C=C1C(=O)O[C@@H]2C/C(C)=C\CC(=O)[C@](C)(OC(C)=O)C[C@H](OC(=O)/C(C)=C\C)[C@@H]12 [Compound 4]

>  <pIC50>
< 5.00

$$$$

Note: attention shifts to another entry.
Task: Fill in the blank: the reported pIC50 of C=C1C(=O)OC2CC(C)CCC(=O)C(C)(OC(C)=O)CC(OC(=O)C(C)=CC)C12 (stereo not shown) [Compound 3] is ____.
Result: < 5.00
